Assignment: determine reported fraction unbound at 16 h, 10 µM for the given compounds.
# test-details: Fraction unbound in human plasma at 10 uM after 16 hrs by LC-MS/MS analysis
# Assay type: ADME, cell-free
One number for each entry.

Worked examples, 5 compounds total:
INSERT INTO measurements (compound, assay_result) VALUES
  ('Cc1noc2c(Cl)c3c(cc12)CC1(C(=O)NC(=O)NC1=O)C1C(C)OC(C)CN31 (racemic)', 0.03),
  ('C[C@@H]1CN2c3c(cc4c(C(F)F)noc4c3F)CC3(C(=O)NC(=O)NC3=O)[C@H]2[C@H](C)O1', 0.028),
  ('Cc1noc2c(F)c3c(cc12)CC1(C(=O)NC(=O)NC1=O)C1C(C)OC(C)CN31 (racemic)', 0.063),
  ('Cc1noc2c(F)c3c(cc12)CC1(C(=O)NC(=O)NC1=O)[C@@H]1[C@@H](C)O[C@@H](C)CN31', 0.035),
  ('CC1CN2c3c(cc4c(C5CC5)noc4c3F)CC3(C(=O)NC(=O)NC3=O)C2C(C)O1 (racemic)', 0.052);

Item under review: Cc1noc2c(F)c3c(cc12)CC1(C(=O)NC(=O)NC1=O)[C@@H]1[C@@H](C)O[C@H](C)CN31 . Reported fraction unbound at 16 h, 10 µM?
0.082

====

# test-details: Fraction unbound in rat plasma at 10 uM after 16 hrs by LC-MS/MS analysis
# Assay type: ADME, cell-free
value-kind: fraction unbound at 16 h, 10 µM

Worked examples, 2 compounds total:
INSERT INTO results (smiles_representation, assay_result) VALUES
  ('C[C@@H]1CN2c3c(cc4c(C(F)F)noc4c3F)CC3(C(=O)NC(=O)NC3=O)[C@H]2[C@H](C)O1', 0.043),
  ('Cc1noc2c(F)c3c(cc12)CC1(C(=O)NC(=O)NC1=O)[C@H]1[C@H](C)O[C@H](C)CN31', 0.16);

Item under review: C[C@@H]1CN2c3c(cc4c(C(F)(F)F)noc4c3F)CC3(C(=O)NC(=O)NC3=O)[C@H]2[C@H](C)O1 . Reported fraction unbound at 16 h, 10 µM?
0.078

====

# Test system: Staphylococcus aureus
# test-details: Antimicrobial activity against methicillin-sensitive Staphylococcus aureus by broth microdilution method
# Format: functional
value-kind: MIC (µM)
Numbers only, in µM.

Worked examples, 8 compounds total:
INSERT INTO measurements (compound, value_kind, assay_result) VALUES
  ('CC1CN2c3c(cc4c(C(C)(C)C)noc4c3F)CC3(C(=O)NC(=O)NC3=O)C2C(C)O1 (racemic)', 'MIC', 18),
  ('Cc1noc2c(F)c3c(cc12)CC1(C(=O)NC(=O)NC1=O)[C@H]1[C@H](C)O[C@H](C)CN31', 'MIC', 1),
  ('O=C(O)c1cn(C2CC2)c2cc(N3CCNCC3)c(F)cc2c1=O [CIPROFLOXACIN]', 'MIC', 0.91),
  ('Cc1noc2c(F)c3c(cc12)CC1(C(=O)NC(=O)NC1=O)C1C(C)CC(C)CN31 (racemic)', 'MIC', 25),
  ('CC(=O)NC[C@H]1CN(c2ccc(N3CCOCC3)c(F)c2)C(=O)O1 [LINEZOLID]', 'MIC', 6.2),
  ('CC1CN2c3c(cc4c(C5CC5)noc4c3F)CC3(C(=O)NC(=O)NC3=O)C2C(C)O1 (racemic)', 'MIC', 1.6),
  ('C[C@@H]1CN2c3c(cc4c(C(F)F)noc4c3F)CC3(C(=O)NC(=O)NC3=O)[C@H]2[C@H](C)O1', 'MIC', 0.39),
  ('Cc1noc2c(F)c3c(cc12)CC1(C(=O)NC(=O)NC1=O)C1C(C)OC(C)CN31 (racemic)', 'MIC', 2.8);

Hey, can you go through the list below and give me MIC for every item?
1. Cc1noc2c(F)c3c(cc12)CC1(C(=O)NC(=O)NC1=O)[C@@H]1[C@@H](C)O[C@H](C)CN31
2. C[C@@H]1CN2c3c(cc4c(C(F)(F)F)noc4c3F)CC3(C(=O)NC(=O)NC3=O)[C@H]2[C@H](C)O1
3. C[C@@H]1CN2c3c(cc4c(N)noc4c3F)CC3(C(=O)NC(=O)NC3=O)[C@H]2[C@H](C)O1

[25, 0.78, 25]

Hey, can you go through the list below and give me MIC for every item?
1. Cc1noc2c(Cl)c3c(cc12)CC1(C(=O)NC(=O)NC1=O)C1C(C)OC(C)CN31 (racemic)
2. COc1noc2c(F)c3c(cc12)CC1(C(=O)NC(=O)NC1=O)[C@H]1[C@H](C)O[C@H](C)CN31
3. COCc1noc2c(F)c3c(cc12)CC1(C(=O)NC(=O)NC1=O)C1C(C)OC(C)CN31 (racemic)
4. C[C@@H]1CN2c3c(cc4c(Cl)noc4c3F)CC3(C(=O)NC(=O)NC3=O)[C@H]2[C@H](C)O1

6.2
3.1
3.1
0.39

====

Assignment: determine reported clearance for the given compounds.
# test-details: Clearance in rat at 3 mg/kg, iv or at 10 mg/kg, po by LC-MS/MS method
# Format: ADME, organism-based
# conditions: in vivo
In your response, the unit should come after the numeric value.

INSERT INTO results (smiles_representation, value_kind, assay_result) VALUES
  ('C[C@@H]1CN2c3c(cc4c(C(F)(F)F)noc4c3F)CC3(C(=O)NC(=O)NC3=O)[C@H]2[C@H](C)O1', 'clearance', '2.3 mL/min/kg'),
  ('C[C@@H]1CN2c3c(cc4c(C(F)F)noc4c3F)CC3(C(=O)NC(=O)NC3=O)[C@H]2[C@H](C)O1', 'clearance', '1 mL/min/kg');

API: the following record is the query input.
Item under review: Cc1noc2c(F)c3c(cc12)CC1(C(=O)NC(=O)NC1=O)[C@H]1[C@H](C)O[C@H](C)CN31 . Reported clearance?
32 mL/min/kg

====

# test-details: Clearance in mouse at 3 mg/kg, iv or at 10 mg/kg, po by LC-MS/MS method
# Format: ADME, organism-based
# conditions: in vivo
value-kind: clearance (mL/min/kg)
One number for each entry, in mL/min/kg.

Worked examples, 2 compounds total:
INSERT INTO results (smiles_representation, unit_abbrev, assay_result) VALUES
  ('Cc1noc2c(F)c3c(cc12)CC1(C(=O)NC(=O)NC1=O)[C@H]1[C@H](C)O[C@H](C)CN31', 'mL/min/kg', 38),
  ('C[C@@H]1CN2c3c(cc4c(C(F)F)noc4c3F)CC3(C(=O)NC(=O)NC3=O)[C@H]2[C@H](C)O1', 'mL/min/kg', 47);

Item under review: C[C@@H]1CN2c3c(cc4c(C(F)(F)F)noc4c3F)CC3(C(=O)NC(=O)NC3=O)[C@H]2[C@H](C)O1 . Reported clearance?
46

====

# test-details: Toxicity in po dosed Wistar Hannover rat administered administered once daily for 14 days
# Format: organism-based
# conditions: in vivo
value-kind: NOAEL at 336 h (mg/kg)
Answers are plain numbers, in mg/kg.

Item under review: Cc1noc2c(F)c3c(cc12)CC1(C(=O)NC(=O)NC1=O)[C@H]1[C@H](C)O[C@H](C)CN31 . Reported NOAEL at 336 h?
500

====

# test-details: Bioavailability in mouse at 3 mg/kg, iv or at 10 mg/kg, po by LC-MS/MS method
# Assay type: ADME, organism-based
# conditions: in vivo
value-kind: bioavailability (%)
Numbers only, in %.

Worked examples, 2 compounds total:
INSERT INTO results (smiles_representation, value_kind, unit_abbrev, assay_result) VALUES
  ('C[C@@H]1CN2c3c(cc4c(C(F)F)noc4c3F)CC3(C(=O)NC(=O)NC3=O)[C@H]2[C@H](C)O1', 'bioavailability', '%', 95),
  ('Cc1noc2c(F)c3c(cc12)CC1(C(=O)NC(=O)NC1=O)[C@H]1[C@H](C)O[C@H](C)CN31', 'bioavailability', '%', 58);

Item under review: C[C@@H]1CN2c3c(cc4c(C(F)(F)F)noc4c3F)CC3(C(=O)NC(=O)NC3=O)[C@H]2[C@H](C)O1 . Reported bioavailability?
63

====

# test-details: Fraction unbound in human plasma at 10 uM after 16 hrs by LC-MS/MS analysis
# Assay type: ADME, cell-free
value-kind: fraction unbound at 16 h, 10 µM
One number for each entry.

INSERT INTO assay_data (molecule, assay_result) VALUES
  ('COCc1noc2c(F)c3c(cc12)CC1(C(=O)NC(=O)NC1=O)C1C(C)OC(C)CN31 (racemic)', 0.096),
  ('Cc1noc2c(F)c3c(cc12)CC1(C(=O)NC(=O)NC1=O)[C@H]1[C@H](C)O[C@@H](C)CN31', 0.051),
  ('CC(=O)NC[C@H]1CN(c2ccc(N3CCOCC3)c(F)c2)C(=O)O1', 0.71);

Hey, can you go through the list below and give me fraction unbound at 16 h, 10 µM for every item?
1. CC1CN2c3c(cc4c(C(C)(C)C)noc4c3F)CC3(C(=O)NC(=O)NC3=O)C2C(C)O1 (racemic)
2. Cc1noc2c(F)c3c(cc12)CC1(C(=O)NC(=O)NC1=O)[C@H]1[C@H](C)O[C@H](C)CN31
3. COc1noc2c(F)c3c(cc12)CC1(C(=O)NC(=O)NC1=O)[C@H]1[C@H](C)O[C@H](C)CN31
4. C[C@@H]1CN2c3c(cc4c(N)noc4c3F)CC3(C(=O)NC(=O)NC3=O)[C@H]2[C@H](C)O1

1. 0.042
2. 0.094
3. 0.09
4. 0.13
